Data provenance: patent US8633232B2

target: hURAT1 Transporter (Homo sapiens); construct: Full-length human URAT1 gene (SLC22A12) was subcloned from plasmid pCMV6-XL5; assay: Uric Acid Uptake Assay; conditions: HEK293/urat1 cells; C14 Uric Acid 40 μM; 10 minutes at room temperature
Assign EC50 to each entry below.

Request: Given `CC(C)(C)OC(=O)CSc1nnc(Br)n1-c1ccc(C2CC2)c2ccccc12` , state its recorded EC50.
Result: > 30 µM

Request: Tell me the measured EC50 of `CCc1ccc(-n2c(Br)nnc2SCC(=O)O)c2cc(OC)ccc12` , please.
Result: 1 to 30 µM

Request: Entry `Cc1ccc(-n2c(SCC(N)=O)nnc2C(F)F)c2c1CCCC2` has what EC50?
Result: 1 to 30 µM

Request: Consider the molecule `COc1ccc(-n2c(SCC(=O)O)nnc2C(F)F)c2c1CCCC2` and give its measured EC50.
Result: 1 to 30 µM

Request: Can you share its EC50? I mean this molecule: `CCc1ccc(-n2c(Br)nnc2SCC(=O)O)c2ccccc12`
Result: 0.001 to 1 µM

Request: Value lookup for EC50; key = CC(Sc1nnc(Br)n1-c1ccc(C2CC2)c2ccccc12)C(=O)O (centres unmarked)
Result: 0.001 to 1 µM

Request: Sample `COc1ccc2c(C3CC3)ccc(-n3c(Br)nnc3SCC(=O)O)c2c1` — what was its EC50?
Result: 1 to 30 µM

Request: Given the molecule CC(Sc1nnc(N)n1-c1ccc(C2CC2)c2ccccc12)C(=O)O (centres unmarked) , what is its reported EC50?
Result: 1 to 30 µM

Request: Endpoint output: EC50 of `Cc1ccc(-n2c(C)nnc2SCC(=O)O)c(C)c1` . Value?
Result: > 30 µM

Request: Recorded EC50 for `Cc1nnc(SCC(=O)O)n1-c1ccccc1C(F)(F)F` , please?
Result: > 30 µM

Request: For `Cc1ccc(-n2c(C)nnc2SCC(=O)O)cc1C` , what is its reported EC50?
Result: > 30 µM

* * *

biological target: hURAT1 Transporter (Homo sapiens, UniProt Q96S37); construct: Full-length human URAT1 gene (SLC22A12) was subcloned from plasmid pCMV6-XL5; assay: Uric Acid Uptake Assay; settings: HEK293/urat1 cells; C14 Uric Acid 40 μM; 10 minutes at room temperature
Sequence (Q96S37 whole entry): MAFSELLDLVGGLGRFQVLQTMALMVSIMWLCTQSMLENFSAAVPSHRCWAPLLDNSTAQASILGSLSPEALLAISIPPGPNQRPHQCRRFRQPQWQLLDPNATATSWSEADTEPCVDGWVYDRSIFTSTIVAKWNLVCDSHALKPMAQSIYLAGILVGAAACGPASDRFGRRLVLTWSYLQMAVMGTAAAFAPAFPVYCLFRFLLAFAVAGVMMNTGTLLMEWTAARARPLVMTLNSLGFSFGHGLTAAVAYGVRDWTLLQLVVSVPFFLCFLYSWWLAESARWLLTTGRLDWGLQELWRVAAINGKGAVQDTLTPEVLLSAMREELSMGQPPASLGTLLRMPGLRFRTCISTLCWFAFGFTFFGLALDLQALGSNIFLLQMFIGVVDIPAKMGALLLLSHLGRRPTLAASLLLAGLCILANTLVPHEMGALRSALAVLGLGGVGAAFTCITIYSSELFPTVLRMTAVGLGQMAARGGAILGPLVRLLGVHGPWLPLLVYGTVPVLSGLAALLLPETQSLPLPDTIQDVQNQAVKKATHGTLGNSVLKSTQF
pEC50: −log10 of the molar value.
Measurement label: pEC50

Request: Please state recorded pEC50 (tested on hURAT1 Transporter (Homo sapiens, UniProt Q96S37)) of `CC(C)(C)c1ccc(-n2c(Br)nnc2SCC(=O)O)c(Cl)c1`
Result: < 4.52

Request: Quick check: pEC50 on hURAT1 Transporter (Homo sapiens, UniProt Q96S37), item `CCOC(=O)CSc1nncn1-c1ccc(C)c2c1CCCC2` ?
Result: 4.52 to 6.00

Request: # returns recorded pEC50 (system: hURAT1 Transporter (Homo sapiens, UniProt Q96S37)) for `O=C(O)CSc1nnc(Br)n1-c1cccc2c(OCC3CC3)cccc12`
Result: < 4.52

Request: I'm curious: which pEC50 was measured for `CCOC(=O)CSc1nnc(C(F)F)n1-c1c(C)cc(C)c2ccccc12` tested on hURAT1 Transporter (Homo sapiens, UniProt Q96S37)?
Result: < 4.52

Request: Test system hURAT1 Transporter (Homo sapiens, UniProt Q96S37); read-out pEC50; what value for `CCOC(=O)CCCSc1nnc(Br)n1-c1ccc(C2CC2)c2ccccc12` ?
Result: 4.52 to 6.00

Request: Request body: readout pEC50, system hURAT1 Transporter (Homo sapiens, UniProt Q96S37), query `CCOC(=O)CSc1nnc(C(F)F)n1-c1ccc(OC)c2c1CCCC2` . Return the value.
Result: < 4.52

Request: // map `CCc1ccc(-n2c(Br)nnc2SC(C)(C)C(=O)O)c2ccccc12` to recorded pEC50 (system: hURAT1 Transporter (Homo sapiens, UniProt Q96S37))
Result: 6.00 to 9.00

Request: // map `Cc1nnc(SCC(=O)O)n1-c1cc(Cl)ccc1Cl` to recorded pEC50 (system: hURAT1 Transporter (Homo sapiens, UniProt Q96S37))
Result: < 4.52

Request: Fill in the recorded pEC50 for this compound, with hURAT1 Transporter (Homo sapiens, UniProt Q96S37) as test system: `Cc1nnc(SCC(=O)O)n1-c1ccc(N(C)C)c2ccccc12`
Result: < 4.52

Request: Request - read-out pEC50 | tested on hURAT1 Transporter (Homo sapiens, UniProt Q96S37) | compound `CCOC(=O)CSc1nnc(C(F)(F)F)n1-c1ccc(C)c2c1CCCC2`
Result: 4.52 to 6.00

Request: I'm curious: which pEC50 was measured for Cc1cc(C)c(-n2c(SCC(=O)O)nnc2C(F)(F)F)c2c1CCCC2 [Example 1A] tested on hURAT1 Transporter (Homo sapiens, UniProt Q96S37)?
Result: 4.52 to 6.00
